protocol: PK study in ICR mice (whole blood)
Format: in vivo
conditions.used: mouse, Female ICR mice, IV 1 mg/kg
measure.name: half-life (min)

CCc1c(F)ccc2cc(O)cc(-c3ncc4c(N5CCC[C@@](C)(O)C5)nc(OCC5(CN6CCC(c7ccc(-c8cn([C@H](C(=O)N9C[C@H](O)C[C@H]9C(=O)N[C@@H](C)c9ccc(-c%10scnc%10C)cc9)C(C)C)nn8)cc7)CC6)CC5)nc4c3F)c12 [Compound 133]; 346
CCc1c(F)ccc2cc(O)cc(-c3ncc4c(N5CCC[C@@](C)(O)C5)nc(OC[C@]56CCCN5[C@@H](COC(=O)N5CCC7(CC5)CC(C(=O)N[C@H](C(=O)N5C[C@H](O)C[C@H]5C(=O)N[C@@H](C)c5ccc(-c8scnc8C)cc5)C(C)(C)C)C7)CC6)nc4c3F)c12 [Compound 88]; 337
CCc1c(F)ccc2cc(O)cc(-c3ncc4c(N5CCC[C@@](C)(O)C5)nc(OCC5(CN6CCC7(CC6)CC(c6cn([C@H](C(=O)N8C[C@H](O)C[C@H]8C(=O)N[C@@H](C)c8ccc(-c9scnc9C)cc8)C(C)C)nn6)C7)CC5)nc4c3F)c12 [Compound 71]; 365

###

protocol: in vitro
conditions.used: rat, microsomes
The entries below come with measured microsomal CLint values attached.
measure.name: microsomal CLint (µL/min/mg)

CCc1c(F)ccc2cc(O)cc(-c3ncc4c(N5CCC[C@@](C)(O)C5)nc(OCC5(CN6CCC7(CC6)CC(c6cn([C@H](C(=O)N8C[C@H](O)C[C@H]8C(=O)N[C@@H](C)c8ccc(-c9scnc9C)cc8)C(C)C)nn6)C7)CC5)nc4c3F)c12 [Compound 71]; 1.1
CCc1c(F)ccc2cc(O)cc(-c3ncc4c(N5CCC[C@@](C)(O)C5)nc(OCC5(CN6CCC7(CC6)CN(c6cc([C@H](C(=O)N8C[C@H](O)C[C@H]8C(=O)N[C@@H](C)c8ccc(-c9scnc9C)cc8)C(C)C)on6)C7)CC5)nc4c3F)c12 [Compound 105]; 5.9
CCc1c(F)ccc2cc(O)cc(-c3ncc4c(N5CCC[C@@](C)(O)C5)nc(OCC5(CN6CCC(N7CCN(c8cc([C@H](C(=O)N9C[C@H](O)C[C@H]9C(=O)N[C@@H](C)c9ccc(-c%10scnc%10C)cc9)C(C)C)on8)CC7)CC6)CC5)nc4c3F)c12 [Compound 115]; 13.8
C=C1CN2[C@H](COCc3ccc(-c4cn([C@H](C(=O)N5C[C@H](O)C[C@H]5C(=O)N[C@@H](C)c5ccc(-c6scnc6C)cc5)C(C)C)nn4)cc3)CC[C@@]2(COc2nc(N3CCC[C@@](C)(O)C3)c3cnc(-c4cc(O)cc5ccc(F)c(CC)c45)c(F)c3n2)C1 [Compound 122]; 8.5
CCc1c(F)ccc2cc(O)cc(-c3ncc4c(N5CCC[C@@](C)(O)C5)nc(OCC5(CN6CCC(Oc7ccc(-c8cn([C@H](C(=O)N9C[C@H](O)C[C@H]9C(=O)N[C@@H](C)c9ccc(-c%10scnc%10C)cc9)C(C)C)nn8)cn7)CC6)CC5)nc4c3F)c12 [Compound 135]; 1.5
CCc1c(F)ccc2cc(O)cc(-c3ncc4c(N5CCC[C@@](C)(O)C5)nc(OCC5(CN6CCC(F)(COc7cc([C@H](C(=O)N8C[C@H](O)C[C@H]8C(=O)N[C@@H](C)c8ccc(-c9scnc9C)cc8)C(C)C)on7)CC6)CC5)nc4c3F)c12 [Compound 100]; 7.9
CCc1c(F)ccc2cc(O)cc(-c3ncc4c(N5CCC[C@@](C)(O)C5)nc(OCC5(CN6CCC(Oc7ccc(-c8cn([C@H](C(=O)N9C[C@H](O)C[C@H]9C(=O)N[C@@H](C)c9ccc(-c%10scnc%10C)cc9)C(C)C)nn8)nc7)CC6)CC5)nc4c3F)c12 [Compound 117]; 11.3
CCc1c(F)ccc2cc(O)cc(-c3ncc4c(N5CCC[C@@](C)(O)C5)nc(OC[C@]56CCCN5[C@@H](COC(=O)N5CCC7(CC5)CC(C(=O)N[C@H](C(=O)N5C[C@H](O)C[C@H]5C(=O)N[C@@H](C)c5ccc(-c8scnc8C)cc5)C(C)(C)C)C7)CC6)nc4c3F)c12 [Compound 88]; 10.1
CCc1c(F)ccc2cc(O)cc(-c3ncc4c(N5CCC[C@@](C)(O)C5)nc(OCC5(CN6CCC(Oc7cc(-c8cn([C@H](C(=O)N9C[C@H](O)C[C@H]9C(=O)N[C@@H](C)c9ccc(-c%10scnc%10C)cc9)C(C)C)nn8)ccn7)CC6)CC5)nc4c3F)c12 [Compound 136]; 8
